B1: TPRG1 (parent)
chain: ETIQGFWLLTKIDHWNNEKERILL

- Variants of: B1
- Method: protein stability index of a GFP-peptide fusion (GPS, HEK-293T) (PSI 1-6); higher = more stable;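 note: lentivirally expressed fusions sorted by FACS into six bins by GFP to DsRed ratio, PSI derived from sequencing read proportions per bin multiplied by bin number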
- Protocol Conditions: c terminus: a fixed tail appended
Grouping key: protein stability index. Bins: lower level: < 2; middle level: ≥ 2 and < 3; upper level: ≥ 3

# classify by protein stability index band: K19V
lower level

# classify by protein stability index band: L24Q
upper level

# classify by protein stability index band: Q4K
middle level

# classify by protein stability index band: W7S
middle level

# classify by protein stability index band: W7L
middle level

# classify by protein stability index band: N17T
middle level

# classify by protein stability index band: W15D
lower level

# classify by protein stability index band: I12E
middle level

# classify by protein stability index band: E18C
middle level

# classify by protein stability index band: N16M
lower level

# classify by protein stability index band: L9G
middle level

# classify by protein stability index band: T2N
middle level

# classify by protein stability index band: F6E
middle level

# classify by protein stability index band: T2K
middle level

# classify by protein stability index band: K19P
middle level

# classify by protein stability index band: Q4G
middle level

# classify by protein stability index band: E1Q
upper level

# classify by protein stability index band: K11F
upper level

# classify by protein stability index band: L8T
middle level

# classify by protein stability index band: Q4E
middle level

# classify by protein stability index band: D13V
middle level

# classify by protein stability index band: L8R
middle level

# classify by protein stability index band: H14F
middle level

# classify by protein stability index band: T2L
lower level

# classify by protein stability index band: R21P
middle level

# classify by protein stability index band: L24H
upper level

# classify by protein stability index band: G5C
upper level

# classify by protein stability index band: F6K
lower level

# classify by protein stability index band: I12M
upper level

# classify by protein stability index band: K19C
middle level

# classify by protein stability index band: W15G
upper level

# classify by protein stability index band: E20D
upper level

# classify by protein stability index band: K11I
middle level

# classify by protein stability index band: L23V
upper level

# classify by protein stability index band: D13A
upper level

# classify by protein stability index band: E20K
middle level

# classify by protein stability index band: T2H
lower level

# classify by protein stability index band: R21T
middle level

# classify by protein stability index band: I12G
lower level

# classify by protein stability index band: L24W
middle level
